Data origin, for the record: patent US20130129739A1

assayed_system: T1, extracellular domain of human PRLR (monomeric, soluble) (human, UniProt P16471 25-234)
T1 construct: also called ECD-PRLR; ECD of PRLR
T1 sequence: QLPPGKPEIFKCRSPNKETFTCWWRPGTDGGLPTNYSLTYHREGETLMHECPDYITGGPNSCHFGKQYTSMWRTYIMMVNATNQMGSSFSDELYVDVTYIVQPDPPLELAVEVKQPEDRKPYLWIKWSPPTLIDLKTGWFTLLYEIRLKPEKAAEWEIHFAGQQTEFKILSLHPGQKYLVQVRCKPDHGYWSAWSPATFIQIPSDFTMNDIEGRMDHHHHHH
experiment_description: ELISA: plate coated with human PRLR extracellular domain, Fab-containing E. coli supernatant, anti-flag-HRP, Amplex Red
experimental_endpoint: binding result

| binder | result |
| --- | --- |
| 005-C04-L2-1-38-3 (Fab, V domains shown, Maturated 005-C04 variant; Fab in E. coli supernatant, flag-detected) VH: EVQLLESGGGLVQPGGSLRLSCAASGFTFSSYWNHWVRQAPGKGLEWVSDISRLSSYTNYADSVKGRFTISRDNSKNTLYLQMNSLRAEDTAVYYCARGLDARRMDYWGQGTLVTVTS VL: QSVLTQPPSASGTPGQRVTISCTGSSSNIGYGYVVHWYQQLPGTAPKLLIYRNNWRPSGVPDRFSGSKSGTSASLAISGLRSEDEADYYCAAWDDSLNGWLFGGGTKLTVLG | binds |
| 005-C04-18-10-2 (Fab, V domains shown, Maturated 005-C04 variant; Fab in E. coli supernatant, flag-detected) VH: EVQLLESGGGLVQPGGSLRLSCAASGFTFSSYWMHWVRQAPGKGLEWVSDISSASSYTNYADSVKGRFTISRDNSKNTLYLQMNSLRAEDTAVYYCARGLDARRMDYWGQGTLVTVTS VL: QSVLTQPPSASGTPGQRVTISCTGSSSNIGAGYVVHWYQQLPGTAPKLLIYRNNVRPSGVPDRFSGSKSGTSASLAISGLRSEDEADYYCAAWDDSLNGWLFGGGTKLTVLG | binds |
